- TARGET: BRG-1 (Homo sapiens, UniProt P51532)
- Construct: made in house; host or cells: High Five insect cells
- Sequence (P51532 whole entry): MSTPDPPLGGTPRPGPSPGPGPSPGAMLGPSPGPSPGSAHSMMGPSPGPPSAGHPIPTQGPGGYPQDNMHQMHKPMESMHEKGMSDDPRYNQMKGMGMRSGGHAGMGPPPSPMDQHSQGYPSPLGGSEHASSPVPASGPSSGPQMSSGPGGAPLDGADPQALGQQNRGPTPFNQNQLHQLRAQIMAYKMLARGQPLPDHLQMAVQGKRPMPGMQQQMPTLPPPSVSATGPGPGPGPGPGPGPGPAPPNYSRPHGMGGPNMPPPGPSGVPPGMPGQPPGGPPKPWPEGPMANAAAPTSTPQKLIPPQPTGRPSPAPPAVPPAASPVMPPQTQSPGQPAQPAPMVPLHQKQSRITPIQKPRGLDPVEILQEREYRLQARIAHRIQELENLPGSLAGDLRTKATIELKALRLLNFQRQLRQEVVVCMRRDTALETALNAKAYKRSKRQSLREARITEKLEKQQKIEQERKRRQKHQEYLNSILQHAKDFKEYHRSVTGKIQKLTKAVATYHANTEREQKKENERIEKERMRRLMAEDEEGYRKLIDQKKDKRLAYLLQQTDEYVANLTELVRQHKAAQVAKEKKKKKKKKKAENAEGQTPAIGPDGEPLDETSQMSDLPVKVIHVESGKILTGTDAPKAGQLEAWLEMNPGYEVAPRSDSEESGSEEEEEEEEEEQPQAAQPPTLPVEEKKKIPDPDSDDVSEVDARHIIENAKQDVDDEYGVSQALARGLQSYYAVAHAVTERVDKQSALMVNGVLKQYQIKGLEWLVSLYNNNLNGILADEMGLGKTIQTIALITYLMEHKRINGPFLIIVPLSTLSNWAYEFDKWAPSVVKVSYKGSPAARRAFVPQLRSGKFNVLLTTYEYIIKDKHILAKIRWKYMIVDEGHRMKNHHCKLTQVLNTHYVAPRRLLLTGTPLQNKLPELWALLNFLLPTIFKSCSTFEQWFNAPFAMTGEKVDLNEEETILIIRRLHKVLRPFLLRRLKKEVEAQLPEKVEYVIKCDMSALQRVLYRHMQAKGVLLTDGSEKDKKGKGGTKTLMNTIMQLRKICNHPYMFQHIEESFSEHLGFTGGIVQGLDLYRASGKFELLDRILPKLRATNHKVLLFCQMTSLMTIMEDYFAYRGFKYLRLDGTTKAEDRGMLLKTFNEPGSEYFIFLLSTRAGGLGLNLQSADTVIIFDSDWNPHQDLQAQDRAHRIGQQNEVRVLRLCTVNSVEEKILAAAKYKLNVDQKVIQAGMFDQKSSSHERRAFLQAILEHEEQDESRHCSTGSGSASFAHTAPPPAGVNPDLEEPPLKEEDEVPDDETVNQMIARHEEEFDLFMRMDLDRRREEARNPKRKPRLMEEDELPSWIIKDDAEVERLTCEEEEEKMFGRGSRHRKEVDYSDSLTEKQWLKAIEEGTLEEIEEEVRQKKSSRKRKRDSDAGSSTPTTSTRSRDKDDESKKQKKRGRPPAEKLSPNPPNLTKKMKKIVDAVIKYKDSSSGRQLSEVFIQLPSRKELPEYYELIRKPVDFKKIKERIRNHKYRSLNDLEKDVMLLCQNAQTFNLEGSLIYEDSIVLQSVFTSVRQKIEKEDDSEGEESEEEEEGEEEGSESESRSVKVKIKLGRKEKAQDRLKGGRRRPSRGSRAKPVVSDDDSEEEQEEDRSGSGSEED
- EXPERIMENTAL PROTOCOL: ATPase catalytic activity of BRG-1, ADP-Glo in vitro biochemical assay
- RUN PARAMETERS: ADP-Glo ATPase assay, 30 nM BRG-1, 400 μM ATP; read-out: BRG1 IC50
REPORTED ENDPOINT: pIC50
Lab note — pIC50 values are minus log10 of concentrations in M.

SMILES STRUCTURE | pIC50
C[C@@H]1CN(c2ccnc(-c3ccc4cnc(CNC(=O)c5ccc6c(c5)S(=O)(=O)CCOC6)cc4c3)n2)C[C@H](C)O1 | 6.58
C[C@@H]1CN(c2cccc(-c3ccc4cnc(CNC(=O)c5ccc6c(c5)S(=O)(=O)CCOC6)cc4n3)n2)C[C@@H](C)O1 | 7.18

Problem: # input molecule: O=C(NCc1cc2nc(N3CCC(F)(F)c4cccnc43)ccc2cn1)c1ccc2c(c1)S(=O)(=O)CCOC2 ; wanted: its pIC50
Solution: 6.71

---

- TARGET: BRM (Homo sapiens, UniProt P51531)
- Construct: made in house; host or cells: High Five insect cells
- Sequence (P51531 whole entry): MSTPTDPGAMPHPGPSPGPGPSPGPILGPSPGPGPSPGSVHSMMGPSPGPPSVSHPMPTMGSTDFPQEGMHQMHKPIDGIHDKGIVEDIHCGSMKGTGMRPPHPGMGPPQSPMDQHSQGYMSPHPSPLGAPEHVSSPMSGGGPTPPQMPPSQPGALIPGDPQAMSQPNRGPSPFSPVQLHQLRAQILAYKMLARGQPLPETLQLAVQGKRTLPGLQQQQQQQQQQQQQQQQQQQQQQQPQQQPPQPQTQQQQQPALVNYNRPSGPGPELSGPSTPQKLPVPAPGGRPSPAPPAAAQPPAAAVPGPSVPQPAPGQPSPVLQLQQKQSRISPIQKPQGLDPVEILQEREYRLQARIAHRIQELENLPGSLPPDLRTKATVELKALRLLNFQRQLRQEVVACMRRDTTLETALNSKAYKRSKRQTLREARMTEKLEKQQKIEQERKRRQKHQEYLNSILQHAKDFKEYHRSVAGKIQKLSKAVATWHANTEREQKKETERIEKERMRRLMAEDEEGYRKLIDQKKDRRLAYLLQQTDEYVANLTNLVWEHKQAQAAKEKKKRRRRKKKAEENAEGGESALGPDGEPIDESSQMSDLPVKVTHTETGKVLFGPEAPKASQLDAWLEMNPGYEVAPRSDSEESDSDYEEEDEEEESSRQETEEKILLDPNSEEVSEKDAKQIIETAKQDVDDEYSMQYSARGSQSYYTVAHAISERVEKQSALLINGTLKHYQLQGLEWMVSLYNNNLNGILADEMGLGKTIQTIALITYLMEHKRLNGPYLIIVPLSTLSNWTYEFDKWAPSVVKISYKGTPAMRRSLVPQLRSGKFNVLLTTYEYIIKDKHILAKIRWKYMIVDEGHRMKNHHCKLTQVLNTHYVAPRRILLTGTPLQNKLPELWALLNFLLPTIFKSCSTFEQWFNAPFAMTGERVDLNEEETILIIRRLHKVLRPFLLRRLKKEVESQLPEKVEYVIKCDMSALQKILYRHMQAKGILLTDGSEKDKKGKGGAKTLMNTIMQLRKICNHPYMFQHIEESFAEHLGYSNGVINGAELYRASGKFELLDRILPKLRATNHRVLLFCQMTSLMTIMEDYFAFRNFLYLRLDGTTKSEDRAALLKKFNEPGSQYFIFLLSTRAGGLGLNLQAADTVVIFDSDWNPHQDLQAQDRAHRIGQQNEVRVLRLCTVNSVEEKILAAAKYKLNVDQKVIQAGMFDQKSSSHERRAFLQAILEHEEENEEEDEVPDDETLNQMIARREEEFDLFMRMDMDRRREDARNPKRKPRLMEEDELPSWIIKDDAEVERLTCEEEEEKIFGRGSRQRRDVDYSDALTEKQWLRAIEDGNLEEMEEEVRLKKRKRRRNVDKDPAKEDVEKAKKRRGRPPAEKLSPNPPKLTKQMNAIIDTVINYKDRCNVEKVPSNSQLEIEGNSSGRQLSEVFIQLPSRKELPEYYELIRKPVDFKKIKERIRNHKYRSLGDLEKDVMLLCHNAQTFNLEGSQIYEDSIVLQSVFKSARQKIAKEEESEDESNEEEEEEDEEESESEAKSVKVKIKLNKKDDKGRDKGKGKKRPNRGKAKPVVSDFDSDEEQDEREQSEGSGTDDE
- EXPERIMENTAL PROTOCOL: ATPase catalytic activity of BRM, ADP-Glo in vitro biochemical assay
- RUN PARAMETERS: ADP-Glo ATPase assay, 30 nM BRM, 400 μM ATP
REPORTED ENDPOINT: IC50 (nM)
Numbers only; they are read as nM.

Some compounds with known IC50 results, for comparison:
SMILES STRUCTURE | TARGET | REPORTED ENDPOINT | REPORTED VALUE
O=C(NCc1cc2nc(N3CCCc4ccc(OCC5(F)COC5)cc43)ccc2cn1)c1ccc2c(c1)S(=O)(=O)CCOC2 | BRM (Homo sapiens, UniProt P51531) | IC50 | 4.5
CS(=O)(=O)c1cc(C(=O)NCc2cc3nc(-c4cncc(C5CC5)n4)ccc3cn2)ccc1Cl | BRM (Homo sapiens, UniProt P51531) | IC50 | 156
CN(C)c1cnc2c(c1)OCCN2c1ccc2cnc(CNC(=O)c3ccc4c(c3)S(=O)(=O)CCOC4)cc2c1 | BRM (Homo sapiens, UniProt P51531) | IC50 | 12.2

Here is another compound to look at.
Problem: # input compound: O=C(NCc1cc2nc(-c3cccc(N4CCC(F)CC4)n3)ccc2cn1)c1ccc2c(c1)S(=O)(=O)CCOC2 ; wanted: its IC50
Solution: 22.1

---

# pIC50 per entry
- TARGET: BRM (Homo sapiens)
- Construct: made in house; host or cells: High Five insect cells
- EXPERIMENTAL PROTOCOL: ATPase catalytic activity of BRM, ADP-Glo in vitro biochemical assay
- RUN PARAMETERS: ATPase catalytic activity, ADP-Glo; 30 nM BRM, 400 μM ATP
Lab note — pIC50 values are minus log10 of concentrations in M.

Some compounds with known pIC50 results, for comparison:
COMPOUND | REPORTED VALUE
CO[C@H]1C[C@H]1N(C)c1cccc(-c2ccc3cnc(CNC(=O)c4ccc5c(c4)S(=O)(=O)[C@@H](C)COC5)cc3n2)n1 | 7.77
CC1Cc2ccc(-c3ccc4cnc(CNC(=O)c5ccc6c(c5)S(=O)(=O)CCOC6)cc4n3)nc2N(C)C1 (stereo not drawn) | 7.58
Cc1cc(C(=O)NCc2cc3nc(-c4cccc(N5C[C@@H](C)O[C@@H](C)C5)n4)ccc3cn2)cc2c1OCC[C@H](C)S2(=O)=O | 7.73
C[C@@H]1CN(c2cccc(-c3ccc4cnc(CNC(=O)c5cnc6c(c5)S(=O)(=O)CCC5CC65)cc4n3)n2)C[C@H](C)O1 (mixture of isomers) | 8.10

Problem: # input compound: C[C@@H]1CCN(C)c2nc(-c3ccc4cnc(CNC(=O)c5ccc6c(c5)S(=O)(=O)CCOC6)cc4n3)ccc21 ; wanted: its pIC50
Solution: 7.36

Problem: # input compound: COC1(Cn2ccc3c(-c4ccc5cnc(CNC(=O)c6ccc7c(c6)S(=O)(=O)CCOC7)cc5n4)ccnc32)CC1 ; wanted: its pIC50
Solution: 7.40

---

# pIC50 per entry
- TARGET: BRG-1 (Homo sapiens, UniProt P51532)
- Construct: made in house; host or cells: High Five insect cells
- EXPERIMENTAL PROTOCOL: ATPase catalytic activity of BRG-1, ADP-Glo in vitro biochemical assay
- RUN PARAMETERS: ATPase catalytic activity, ADP-Glo; 30 nM BRG-1, 400 μM ATP; read-out: BRG1 IC50
Lab note — pIC50 values are minus log10 of concentrations in M.

Some compounds with known pIC50 results, for comparison:
SMILES STRUCTURE | pIC50
Cc1ccc2c(n1)N(c1ccc3cnc(CNC(=O)c4ccc5c(c4)S(=O)(=O)CCOC5)cc3c1)CCO2 | 6.37
CO[C@H]1C[C@H]1N(C)c1cccc(-c2ccc3cnc(CNC(=O)c4ccc5c(c4)S(=O)(=O)CCOC5)cc3n2)n1 | 7.12
CO[C@H]1CN(c2cccc(-c3ccc4cnc(CNC(=O)c5ccc6c(c5)S(=O)(=O)CCOC6)cc4n3)n2)C[C@H]1F | 6.65
C[C@H]1COCc2ccc(C(=O)NCc3cc4nc(N5CCCc6cc(N(C)C)cnc65)ccc4cn3)cc2S1(=O)=O | 6.94
C[C@@H]1CN(c2cccc(-c3ccc4cnc(CNC(=O)c5ccc6c(c5)S(=O)(=O)CCCN6C)cc4n3)n2)C[C@H](C)O1 | 6.31
Cc1ccc2c(c1)OCCN2c1ccc2cnc(CNC(=O)c3ccc4c(c3)S(=O)(=O)CCCO4)cc2n1 | 6.40

Problem: # input compound: CCN1CCN(c2ccc3cnc(CNC(=O)c4ccc5c(c4)S(=O)(=O)CCOC5)cc3n2)c2ncccc21 ; wanted: its pIC50
Solution: 6.45

---

- TARGET: BRM (Homo sapiens, UniProt P51531)
- Construct: made in house; host or cells: High Five insect cells
- EXPERIMENTAL PROTOCOL: ATPase catalytic activity of BRM, ADP-Glo in vitro biochemical assay
- RUN PARAMETERS: selectivity ratio BRG1 IC50 / BRM IC50
REPORTED ENDPOINT: Ratio* (BRG1 IC50 (μM) divided by BRM IC50 (μM))
Quick one: just the number, no unit, thanks!

Some compounds with known Ratio* (BRG1 IC50 (μM) divided by BRM IC50 (μM)) results, for comparison:
SMILES STRUCTURE | TARGET | REPORTED VALUE
O=C(NCc1cc2nc(-c3cccc(C4CC(F)(F)C4)n3)ccc2cn1)c1ccc2c(c1)S(=O)(=O)CCOC2 | BRM (Homo sapiens, UniProt P51531) | 9.52
COc1ccccc1-c1ccc2cnc(CNC(=O)c3ccc4c(c3)S(=O)(=O)CCOC4)cc2n1 | BRM (Homo sapiens, UniProt P51531) | 9.53
O=C(NCc1cc2cc(-c3cncc(C4CC4)n3)ccc2cn1)c1cnc2c(c1)S(=O)(=O)CCOC2 | BRM (Homo sapiens, UniProt P51531) | 8.41

Here is another compound to look at.
Problem: # input compound: COc1nn([C@H]2C[C@@H](F)C2)cc1-c1ccc2cnc(CNC(=O)c3ccc4c(c3)S(=O)(=O)CCOC4)cc2n1 ; wanted: its Ratio* (BRG1 IC50 (μM) divided by BRM IC50 (μM))
Solution: 6.80

---

- TARGET: BRM (Homo sapiens)
- Construct: made in house; host or cells: High Five insect cells
- EXPERIMENTAL PROTOCOL: ATPase catalytic activity of BRM, ADP-Glo in vitro biochemical assay
- RUN PARAMETERS: ADP-Glo ATPase assay, 30 nM BRM, 400 μM ATP
# pIC50 per entry
Lab note — pIC50 values are minus log10 of concentrations in M.

SMILES STRUCTURE | pIC50
O=C(NCc1cc2cc(N3CCOc4ccc(C5CC5)nc43)ccc2cn1)c1ccc2c(c1)S(=O)(=O)CCOC2 | 7.35

Problem: Tell me reported pIC50 for O=C(NCc1cc2nc(-c3cccc(N4CCC(F)(F)C4)n3)ccc2cn1)c1ccc2c(c1)S(=O)(=O)CCOC2 , tested with BRM (Homo sapiens).
Solution: 7.75

Problem: Tell me reported pIC50 for CO[C@H](C)COc1ccc2c(c1)N(c1ccc3cnc(CNC(=O)c4ccc5c(c4)S(=O)(=O)CCOC5)cc3n1)CCC2 , tested with BRM (Homo sapiens).
Solution: 8.37

---

- TARGET: BRG-1 (Homo sapiens, UniProt P51532)
- Construct: made in house; host or cells: High Five insect cells
- EXPERIMENTAL PROTOCOL: ATPase catalytic activity of BRG-1, ADP-Glo in vitro biochemical assay
- RUN PARAMETERS: ATPase catalytic activity, ADP-Glo; 30 nM BRG-1, 400 μM ATP; read-out: BRG1 IC50
# IC50 per entry
Numbers only; they are read as nM.

COMPOUND | VALUE UNITS | IC50
Cc1ccc2c(c1)OCCN2c1ccc2cnc(CNC(=O)c3ccc4c(c3)S(=O)(=O)CCOC4)cc2n1 | nM | 42.6
CO[C@H]1COc2c(-c3ccc4cnc(CNC(=O)c5ccc6c(c5)S(=O)(=O)CCOC6)cc4n3)cccc2N(C)C1 | nM | 2220
O=C(NCc1cc2nc(N3CCCc4ccc(C5CCOC5)nc43)ccc2cn1)c1ccc2c(c1)S(=O)(=O)CCOC2 (stereo not shown) | nM | 1160

Here is another compound to look at.
Problem: Tell me reported IC50 for CC1CCc2ccc(-c3ccc4cnc(CNC(=O)c5ccc6c(c5)S(=O)(=O)CCOC6)cc4n3)nc2N1C1CC1 (stereo not shown) , tested with BRG-1 (Homo sapiens, UniProt P51532).
Solution: 966
